Quick reference: growth inhibition of the listed items.
- assay_notes: NCI Yeast Anticancer Drug Screen. Data for the wt1 strain (AID 149);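 note: 0% = growth of vehicle-treated wt1 cultures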
- test_settings: S. cerevisiae wt1 strain (SPY 50644) growth inhibition; at 11.0 µM; active compounds read high
About 79,000 compounds went through this panel and 15% of them were active in at least one assay; those are over-represented in the sample as a whole.
experimental_endpoint: growth inhibition (%)

>  <compound>
CC(C)(C)c1cc([N+](=O)[O-])cc([N+](=O)[O-])c1O

>  <observed>
-7

$$$$
>  <compound>
CS(=O)(=O)OCCN(CCOS(C)(=O)=O)c1ccc(C=O)cc1

>  <observed>
10

$$$$
>  <compound>
NNc1ccccc1Cl

>  <observed>
81

$$$$
>  <compound>
OC1CCCC2CCC[N-]C12.OC1CCCC2CCC[N-]C12.[O]=[V][OH] (stereo not given)

>  <observed>
85

$$$$
>  <compound>
CC1=C2C(=C[C@@](C)(CO)[C@@H]2O)C(=O)[C@](C)(O)C12CC2

>  <observed>
0

$$$$
>  <compound>
CCOP(=O)(CC(C)P(=O)(OCC)OCC)OCC.C[CH2][Sn]([Cl])([Cl])[CH2]C (stereo not given)

>  <observed>
12

$$$$
>  <compound>
COc1cc([C@@H]2c3cc4c(cc3C[C@@H]3COC(=O)C32)OCO4)cc(OC)c1O (stereo not given in full)

>  <observed>
65

$$$$
>  <compound>
C[N+](CCCl)(CCCl)Cc1cccc2cccc([N+](=O)[O-])c12

>  <observed>
31

$$$$
>  <compound>
CCCCCNC(=O)c1c(O)[nH]c(=S)[nH]c1=O

>  <observed>
15

$$$$
>  <compound>
C[C@]12CCC(=O)C=C1CC[C@@H]1C2CC[C@@]2(C)C1CC[C@@H]2OC(=O)C12OC1CCC2=O (stereo not given in full)

>  <observed>
8

$$$$

* * *

- assay_notes: NCI Yeast Anticancer Drug Screen. Data for the bub3 strain (AID 167)
- test_settings: S. cerevisiae bub3 mutant strain, at 50.0 µM (retest, dose inferred, filed as 5.0), active compounds read high
This is part of a sample that, as a whole, favours compounds with a hit. Of some 79,000 tested, about 15% had one in any assay.
experimental_endpoint: growth inhibition (%)

>  <molecule>
CN(C)CC1CC2C3CC=C4CC(O)CCC4(C)C3CCC2(C)C1=O (stereo not drawn)

>  <experimental_endpoint>
growth inhibition

>  <observed>
90

$$$$
>  <molecule>
N#Cc1ccc([Se]c2ccccc2)cc1

>  <experimental_endpoint>
growth inhibition

>  <observed>
84

$$$$
>  <molecule>
O=[N+]([O-])C(Br)(Br)CCC(Br)(Br)[N+](=O)[O-]

>  <experimental_endpoint>
growth inhibition

>  <observed>
100

$$$$
>  <molecule>
O=C1C=CC(=O)C1(Br)Br

>  <experimental_endpoint>
growth inhibition

>  <observed>
99

$$$$
>  <molecule>
CSc1ccc2c(c1)c(CCN)c(C)n2Cc1ccccc1Cl

>  <experimental_endpoint>
growth inhibition

>  <observed>
99

$$$$
>  <molecule>
CCNC(C)(C)C(SS)c1ccc(Br)cc1 (stereo not drawn)

>  <experimental_endpoint>
growth inhibition

>  <observed>
17

$$$$
>  <molecule>
c1ccc2c3ccn4cc5c(cc4c-3nc2c1)CCCC5

>  <experimental_endpoint>
growth inhibition

>  <observed>
97

$$$$
>  <molecule>
c1ccc([Te][Te]c2ccccc2)cc1

>  <experimental_endpoint>
growth inhibition

>  <observed>
68

$$$$
>  <molecule>
CCCCCCCCCCCCCCCCCC(=O)[O][Hg][c]1ccccc1

>  <experimental_endpoint>
growth inhibition

>  <observed>
100

$$$$
>  <molecule>
O=c1oc2ccccc2c(O)c1C(c1ccc(/C=C/c2ccccc2)cc1)c1c(O)c2ccccc2oc1=O

>  <experimental_endpoint>
growth inhibition

>  <observed>
97

$$$$
>  <molecule>
C[N+](CCCl)(CCCl)Cc1cccc2cccc([N+](=O)[O-])c12

>  <experimental_endpoint>
growth inhibition

>  <observed>
45

$$$$
>  <molecule>
CCOP(=S)(OCC)OC(c1ccc(Cl)cc1)c1ccc(Cl)cc1

>  <experimental_endpoint>
growth inhibition

>  <observed>
18

$$$$
>  <molecule>
C=C(CC(=O)O)C(=O)O (tested in a mixture with another compound)

>  <experimental_endpoint>
growth inhibition

>  <observed>
-4

$$$$
>  <molecule>
OCC(O)C(O)CO (stereo not drawn) (tested in a mixture with another compound)

>  <experimental_endpoint>
growth inhibition

>  <observed>
25

$$$$
>  <molecule>
C[As](c1ccc(Br)cc1)c1ccc(Br)cc1

>  <experimental_endpoint>
growth inhibition

>  <observed>
44

$$$$
>  <molecule>
CC1(C)C(=O)C=CC2(C)C1CC(O)C1(C)C2CCC2(C)C(c3ccoc3)OC(=O)C3OC321 (stereo not drawn)

>  <experimental_endpoint>
growth inhibition

>  <observed>
12

$$$$
>  <molecule>
CN(CCO)CCO

>  <experimental_endpoint>
growth inhibition

>  <observed>
6

$$$$
>  <molecule>
COC(COC(N)=O)C1=C(N2CC2)C(=O)C(C)=C(N2CC2)C1=O (stereo not drawn)

>  <experimental_endpoint>
growth inhibition

>  <observed>
99

$$$$
>  <molecule>
O=S(=O)(O)O.[Pt].c1ccc([PH+](c2ccccc2)c2ccccc2)cc1.c1ccc([PH+](c2ccccc2)c2ccccc2)cc1.c1ccc([PH+](c2ccccc2)c2ccccc2)cc1

>  <experimental_endpoint>
growth inhibition

>  <observed>
92

$$$$
>  <molecule>
Nc1ccc(N=Nc2ccccc2)cc1

>  <experimental_endpoint>
growth inhibition

>  <observed>
43

$$$$
>  <molecule>
COc1ccc(CC2C(=O)NC(C)C(=O)N(C)C3C(=O)N(C)C(Cc4ccc(O)c(c4)Oc4ccc(cc4)C3O)C(=O)NC(C)C(=O)NC(C)C(=O)N2C)cc1 (stereo not drawn)

>  <experimental_endpoint>
growth inhibition

>  <observed>
81

$$$$
>  <molecule>
CCOP(=O)(OCC)/C(C#N)=C/c1ccccc1Cl

>  <experimental_endpoint>
growth inhibition

>  <observed>
74

$$$$
>  <molecule>
CCOC(=O)C(/N=N\c1nn[nH]n1)/N=N/c1ncn[nH]1 (stereo not drawn)

>  <experimental_endpoint>
growth inhibition

>  <observed>
-3

$$$$
>  <molecule>
Cn1c(=O)c2[nH]cnc2n(C)c1=O.[CH2-]C(Cc1cccc2cc(C(=O)O)c(=O)oc12)OC.[Hg+2].[OH-] (stereo not drawn)

>  <experimental_endpoint>
growth inhibition

>  <observed>
-16

$$$$
>  <molecule>
c1ccncc1

>  <experimental_endpoint>
growth inhibition

>  <observed>
6

$$$$
>  <molecule>
O=[N+]([O-])c1ccc(O)c(CCl)c1

>  <experimental_endpoint>
growth inhibition

>  <observed>
18

$$$$
>  <molecule>
Cc1ccc([C@H]2N[C@@H]2c2ccccn2)cc1

>  <experimental_endpoint>
growth inhibition

>  <observed>
-2

$$$$
>  <molecule>
Cc1cccc2cc3ccccc3cc12

>  <experimental_endpoint>
growth inhibition

>  <observed>
99

$$$$
>  <molecule>
CCCCCCCCCCCCC(=O)[O][Hg][c]1ccccc1

>  <experimental_endpoint>
growth inhibition

>  <observed>
99

$$$$
>  <molecule>
Nc1nc(N)c2c(Cl)c(CNc3ccc(C(=O)NC(CC(=O)O)C(=O)O)cc3)ccc2n1 (stereo not drawn)

>  <experimental_endpoint>
growth inhibition

>  <observed>
26

$$$$
>  <molecule>
O=[N+]([O-])c1ccc(C=Cc2ccc(C(F)(F)F)cc2)cc1.[C-]#[O+].[C-]#[O+].[C-]#[O+].[Cr]

>  <experimental_endpoint>
growth inhibition

>  <observed>
75

$$$$
>  <molecule>
O=C(COc1ccc(Cl)cc1Cl)NO

>  <experimental_endpoint>
growth inhibition

>  <observed>
10

$$$$
>  <molecule>
COC(=O)C1C2c3ccccc3C(c3ccccc32)C1C(=O)OC (stereo not drawn)

>  <experimental_endpoint>
growth inhibition

>  <observed>
27

$$$$
>  <molecule>
Nc1nc(-c2ccccc2)c(-c2ccccc2)[se]1

>  <experimental_endpoint>
growth inhibition

>  <observed>
1

$$$$
>  <molecule>
CCCC[CH2][Pb]([CH2]CCCC)([CH2]CCCC)[O]C(C)=O

>  <experimental_endpoint>
growth inhibition

>  <observed>
97

$$$$
>  <molecule>
CC(C)CCC[C@@H](C)[C@H]1CC[C@H]2[C@@H]3CC[C@H]4C[C@H](NCCCl)CC[C@]4(C)[C@H]3CC[C@]12C

>  <experimental_endpoint>
growth inhibition

>  <observed>
49

$$$$
>  <molecule>
COC(=O)[C@@]12OC[C@]34[C@H]([C@@H](O)[C@@H]1O)[C@@]1(C)CC(=O)C(O)=C(C)[C@@H]1C[C@H]3OC(=O)[C@H](OC(=O)/C=C(\C)C(C)C)[C@@H]24

>  <experimental_endpoint>
growth inhibition

>  <observed>
99

$$$$
>  <molecule>
O=C(O)CCCc1cc(I)c(N(CCCl)CCCl)c(I)c1

>  <experimental_endpoint>
growth inhibition

>  <observed>
97

$$$$
>  <molecule>
Cc1ccc(P(=O)(c2ccc(C)cc2)c2ccc(C)cc2)cc1.Cc1ccc(P(=O)(c2ccc(C)cc2)c2ccc(C)cc2)cc1.[Cl][Sn]([Cl])([Cl])[Cl]

>  <experimental_endpoint>
growth inhibition

>  <observed>
72

$$$$
>  <molecule>
O=C(NNC(=O)OCC(Cl)(Cl)Cl)OCC(Cl)(Cl)Cl

>  <experimental_endpoint>
growth inhibition

>  <observed>
7

$$$$
>  <molecule>
C[As](C)SCC1OC2OC(C)(C)OC2C2OC(C)(C)OC12 (stereo not drawn)

>  <experimental_endpoint>
growth inhibition

>  <observed>
99

$$$$
>  <molecule>
NN1CCCC1C(=O)O (stereo not drawn)

>  <experimental_endpoint>
growth inhibition

>  <observed>
-2

$$$$
>  <molecule>
Clc1c(CI)ccc(CI)c1Cl

>  <experimental_endpoint>
growth inhibition

>  <observed>
89

$$$$

These data points were gathered from PubChem BioAssay (NCI).
